# MEASUREMENT PROTOCOL: Stability in Mouse Plasma
# Type: in vitro ADME
# APPLIED CONDITIONS: pooled mouse plasma, 37° C., peptides 100 DM, 30 min
Residues, ends and D or L forms follow the SMILES beside them.
PARAMETER: remaining at 0.5 h, 100 DM

# return recorded remaining at 0.5 h, 100 DM for entry CC[C@H](C)[C@H](NC(=O)[C@H](C)NC(=O)[C@H](CO)NC(=O)CNC(=O)[C@@H]1CCCN1C(=O)[C@H](CC(C)C)NC(=O)[C@@H](N)CCCNC(=N)N)C(=O)N[C@@H](CC(C)C)C(=O)N[C@H](C(=O)N[C@@H](CC(N)=O)C(=O)N1CCC[C@H]1C(=O)N[C@H](C(=O)N[C@@H](CC(C)C)C(=O)NCC(=O)N[C@@H](Cc1c[nH]c2ccccc12)C(=O)N[C@H](C(=O)N[C@@H](Cc1c[nH]c2ccccc12)C(=O)N[C@H](C(=O)O)C(C)C)C(C)C)C(C)C)[C@@H](C)O [compound 8] (H-RLPGSAILTNPVLGWVWV-OH)
82.7%

====

# MEASUREMENT PROTOCOL: Stability in Mouse Plasma
# Format: in vitro ADME
# APPLIED CONDITIONS: pooled mouse plasma, 37° C., peptides 100 DM, 60 min
Non-standard residues stand in square brackets, D forms with d. Residues, ends and D or L forms follow the SMILES beside them.
In this section we review reported remaining at 1 h, 100 DM values for a set of compounds.
Entry rule: numbers only, all in %.

# count of solved cases: 3
- COMPOUND: "CC[C@H](C)[C@H](NC(=O)[C@@H](C)NC(=O)[C@H](CO)NC(=O)CNC(=O)[C@@H]1CCCN1C(=O)[C@H](CC(C)C)NC(=O)[C@@H](N)CCCNC(=N)N)C(=O)N[C@@H](CC(C)C)C(=O)N[C@H](C(=O)N[C@@H](CC(N)=O)C(=O)N1CCC[C@H]1C(=O)N[C@H](C(=O)N[C@@H](CC(C)C)C(=O)NCC(=O)N[C@@H](Cc1c[nH]c2ccccc12)C(=O)N[C@H](C(=O)N[C@@H](Cc1c[nH]c2ccccc12)C(=O)N[C@H](C(=O)O)C(C)C)C(C)C)C(C)C)[C@@H](C)O [compound 9] (H-RLPGS[dA]ILTNPVLGWVWV-OH)"
  READING UNIT: "%"
  MEAS VALUE: 72
- COMPOUND: "CC[C@H](C)[C@H](NC(=O)[C@@H](C)NC(=O)[C@H](CO)NC(=O)CNC(=O)[C@@H]1CCCN1C(=O)[C@H](CC(C)C)NC(=O)[C@@H](N)CCCNC(=N)N)C(=O)N[C@@H](CC(C)C)C(=O)N[C@H](C(=O)N[C@@H](CC(N)=O)C(=O)N1CCC[C@H]1C(=O)N[C@H](C(=O)N[C@@H](CC(C)C)C(=O)NCC(=O)N[C@@H](Cc1c[nH]c2ccccc12)C(=O)N[C@H](C(=O)O)C(C)C)C(C)C)[C@@H](C)O [compound 10] (H-RLPGS[dA]ILTNPVLGWV-OH)"
  READING UNIT: "%"
  MEAS VALUE: 44.4
- COMPOUND: "CC[C@H](C)[C@H](NC(=O)[C@H](C)NC(=O)[C@H](CO)NC(=O)CNC(=O)[C@@H]1CCCN1C(=O)[C@H](CC(C)C)NC(=O)[C@H](CCCNC(=N)N)NC(=O)[C@@H](N)CCSC)C(=O)N[C@@H](CC(C)C)C(=O)N[C@H](C(=O)N[C@@H](CC(N)=O)C(=O)N1CCC[C@H]1C(=O)N[C@H](C(=O)N[C@@H](CC(C)C)C(=O)NCC(=O)N[C@@H](Cc1c[nH]c2ccccc12)C(=O)N[C@H](C(=O)N[C@@H](Cc1c[nH]c2ccccc12)C(=O)N[C@H](C(=O)O)C(C)C)C(C)C)C(C)C)[C@@H](C)O [compound 7] (H-MRLPGSAILTNPVLGWVWV-OH)"
  READING UNIT: "%"
  MEAS VALUE: 52.6

// next item, remaining at 1 h, 100 DM requested
# return recorded remaining at 1 h, 100 DM for entry CC[C@H](C)[C@H](NC(=O)[C@H](C)NC(=O)[C@H](CO)NC(=O)CNC(=O)[C@@H]1CCCN1C(=O)[C@H](CC(C)C)NC(=O)[C@@H](N)CCCNC(=N)N)C(=O)N[C@@H](CC(C)C)C(=O)N[C@H](C(=O)N[C@@H](CC(N)=O)C(=O)N1CCC[C@H]1C(=O)N[C@H](C(=O)N[C@@H](CC(C)C)C(=O)NCC(=O)N[C@@H](Cc1c[nH]c2ccccc12)C(=O)N[C@H](C(=O)N[C@@H](Cc1c[nH]c2ccccc12)C(=O)N[C@H](C(=O)O)C(C)C)C(C)C)C(C)C)[C@@H](C)O [compound 8] (H-RLPGSAILTNPVLGWVWV-OH)
70.9

====

In this section we review reported MTS cell viability, Percent of Control Activity values for a set of compounds.
# System: MCF-7 cells
# APPLIED CONDITIONS: human, 72 hours, 10 μM
Residues, ends and D or L forms follow the SMILES beside them.
Entry rule: numbers only, all in %.

- COMPOUND: "CC[C@H](C)[C@H](NC(=O)[C@H](C)NC(=O)[C@H](CO)NC(=O)CNC(=O)[C@@H]1CCCN1C(=O)[C@H](CC(C)C)NC(=O)[C@H](CCCNC(=N)N)NC(=O)[C@@H](N)CCSC)C(=O)N[C@@H](CC(C)C)C(=O)N[C@H](C(=O)N[C@@H](CC(N)=O)C(=O)N1CCC[C@H]1C(=O)N[C@H](C(=O)N[C@@H](CC(C)C)C(=O)NCC(=O)N[C@@H](Cc1c[nH]c2ccccc12)C(=O)N[C@H](C(=O)N[C@@H](Cc1c[nH]c2ccccc12)C(=O)N[C@H](C(=O)O)C(C)C)C(C)C)C(C)C)[C@@H](C)O [compound 7] (H-MRLPGSAILTNPVLGWVWV-OH)"
  MEAS VALUE: 64
- COMPOUND: "CC[C@H](C)[C@H](NC(=O)[C@H](C)NC(=O)[C@H](Cc1c[nH]c2ccccc12)NC(=O)[C@@H](N)CCSC)C(=O)N[C@@H](CC(=O)O)C(=O)N[C@@H](CCC(=O)O)C(=O)N[C@@H](CCCCN)C(=O)N[C@@H](C)C(=O)N[C@H](C(=O)N[C@@H](CCC(=O)O)C(=O)N[C@@H](C)C(=O)N[C@@H](CO)C(=O)NCC(=O)N[C@@H](CCC(=O)O)C(=O)O)C(C)C [compound 30] (H-MWAIDEKAVEASGE-OH; N-terminus and C-terminus assumed)"
  MEAS VALUE: 61

// next item, MTS cell viability, Percent of Control Activity requested
# return recorded MTS cell viability, Percent of Control Activity for entry CC[C@H](C)[C@H](NC(=O)CNC(=O)[C@H](CCC(=O)O)NC(=O)[C@H](CCCNC(=N)N)NC(=O)CNC(=O)[C@H](Cc1c[nH]c2ccccc12)NC(=O)[C@@H]1CCCN1C(=O)[C@H](Cc1c[nH]cn1)NC(=O)CNC(=O)CNC(=O)[C@H](CCC(=O)O)NC(=O)[C@H](CO)NC(=O)[C@H](CC(C)C)NC(=O)[C@@H]1CCCN1C(=O)CNC(=O)[C@H](CCCCN)NC(=O)[C@@H](NC(=O)[C@@H](NC(=O)[C@@H](N)CCSC)C(C)C)C(C)C)C(=O)O [compound 25] (H-MVVKGPLSEGGHPWGREGI-OH; N-terminus and C-terminus assumed)
40

====

# MEASUREMENT PROTOCOL: Stability in Mouse Plasma
# Type: in vitro ADME
# APPLIED CONDITIONS: pooled mouse plasma, 37° C., peptides 100 DM, 30 min
Non-standard residues stand in square brackets, D forms with d. Residues, ends and D or L forms follow the SMILES beside them.
PARAMETER: remaining at 0.5 h, 100 DM (%)
Entry rule: numbers only, all in %.

- MOLECULE: "CC[C@H](C)[C@H](NC(=O)[C@H](C)NC(=O)[C@H](CO)NC(=O)CNC(=O)[C@@H]1CCCN1C(=O)[C@H](CC(C)C)NC(=O)[C@H](CCCNC(=N)N)NC(=O)[C@@H](N)CCSC)C(=O)N[C@@H](CC(C)C)C(=O)N[C@H](C(=O)N[C@@H](CC(N)=O)C(=O)N1CCC[C@H]1C(=O)N[C@H](C(=O)N[C@@H](CC(C)C)C(=O)NCC(=O)N[C@@H](Cc1c[nH]c2ccccc12)C(=O)N[C@H](C(=O)N[C@@H](Cc1c[nH]c2ccccc12)C(=O)N[C@H](C(=O)O)C(C)C)C(C)C)C(C)C)[C@@H](C)O [compound 7] (H-MRLPGSAILTNPVLGWVWV-OH)"
  MEAS VALUE: 68.2

// next item, remaining at 0.5 h, 100 DM requested
# return recorded remaining at 0.5 h, 100 DM for entry CC[C@H](C)[C@H](NC(=O)[C@@H](C)NC(=O)[C@H](CO)NC(=O)CNC(=O)[C@@H]1CCCN1C(=O)[C@H](CC(C)C)NC(=O)[C@@H](N)CCCNC(=N)N)C(=O)N[C@@H](CC(C)C)C(=O)N[C@H](C(=O)N[C@@H](CC(N)=O)C(=O)N1CCC[C@H]1C(=O)N[C@H](C(=O)N[C@@H](CC(C)C)C(=O)NCC(=O)N[C@@H](Cc1c[nH]c2ccccc12)C(=O)N[C@H](C(=O)N[C@@H](Cc1c[nH]c2ccccc12)C(=O)N[C@H](C(=O)O)C(C)C)C(C)C)C(C)C)[C@@H](C)O [compound 9] (H-RLPGS[dA]ILTNPVLGWVWV-OH)
81

Reference for the values: patent US20220324912A1
